Cited source for all entries: PubChem BioAssay

# TEST_SYSTEM: Carbonic anhydrase 2 (Homo sapiens) (UniProt P00918)
# ASSAY_TEXT: compounds binding carbonic anhydrase 2 – biochemical, small-molecule microarray, Alexa647-labelled CAII, profiling panel (AID 1122)
# CONDITION_DESCRIPTION: CAII-A647 binding fluorescence, higher = more signal
Class boundaries, taken from values of composite z-score, are as follows: LOW = under 0.3, MEDIUM = from 0.3 up to 0.7, HIGH = 0.7 and over

Band for CCCC1(C(=O)OC)C=C2C(=C(c3ccccc3)C(=O)C2C)CN1 (centres undefined) ?
HIGH

Band for `COc1ccc(-c2cc3c(c(Cc4ccccc4)n2)[Si](C(C)C)(C(C)C)OC3)cn1` ?
LOW

Band for `C=C(/C(=C/C[C@H](OC(C)=O)c1ccc(OCCO)cc1)c1cc(C(=O)OC)ccc1OC)C(C)C` ?
HIGH

Band for CN1C(=O)C2C=CC(C(O)c3ccc(F)cc3)N(N(c3ccccc3)c3ccccc3)C2C1=O (centres undefined) ?
MEDIUM

Band for `CC[C@@H]1C=C(C(=O)O)[C@H](c2cccc3ccccc23)N1S(=O)(=O)c1ccc(C)cc1` ?
MEDIUM

Band for CN1CCC(CCCO)=CC1c1cccs1 (centres undefined) ?
HIGH

Band for `CO[C@H]1O[C@H](CO)[C@@H](OC(=O)Nc2ccccc2)[C@@H]2OC(=O)[C@@H](Cc3ccc4ccccc4c3)C/C=C/C[C@H](Cc3ccc4ccccc4c3)C(=O)O[C@@H]12` ?
MEDIUM

Band for `C#CCN1[C@H](/C=C/C2CC2)[C@H](Cc2ccccc2)OC(=O)[C@@H]1Cc1ccccc1` ?
LOW

Band for O=C1NC(=O)C2C1C=CC(C(O)c1ccc(I)cc1)N2Nc1ccc(Cl)cc1Cl (centres undefined) ?
MEDIUM
